Data credit: patent US20250263426A1

- Measured target: PDE4B2 (Homo sapiens (Human), UniProt Q07343)
- Sequence (Q07343 other isoform, or with tags, fused parts or gaps): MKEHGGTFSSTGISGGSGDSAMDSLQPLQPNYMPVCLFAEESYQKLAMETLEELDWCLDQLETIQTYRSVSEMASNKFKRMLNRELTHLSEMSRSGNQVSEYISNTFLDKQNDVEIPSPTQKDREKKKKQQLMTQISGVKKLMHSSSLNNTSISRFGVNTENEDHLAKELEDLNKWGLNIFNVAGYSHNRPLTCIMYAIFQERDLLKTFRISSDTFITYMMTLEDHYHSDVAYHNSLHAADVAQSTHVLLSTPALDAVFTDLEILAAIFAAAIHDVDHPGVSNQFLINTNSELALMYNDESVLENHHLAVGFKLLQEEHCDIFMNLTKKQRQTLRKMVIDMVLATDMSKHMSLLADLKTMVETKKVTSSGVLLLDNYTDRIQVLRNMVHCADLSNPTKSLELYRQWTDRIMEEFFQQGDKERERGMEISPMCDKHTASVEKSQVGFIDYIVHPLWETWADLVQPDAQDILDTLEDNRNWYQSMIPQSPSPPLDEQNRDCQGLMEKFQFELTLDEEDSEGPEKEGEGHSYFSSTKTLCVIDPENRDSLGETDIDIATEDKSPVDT
- Experimental protocol: Effect of compounds on PDE4B2 activity (fluorescence polarization kit)
- Experimental conditions: read-out: PDE4B2 IC50
pIC50: −log10 of the molar value.

Molecule: [O-][S+]1CCc2nc(N3C[C@@H]4CC(c5ccc(Cl)cc5)=C[C@@H]4C3)nc(NC3CN(CCCF)C3)c21 (single isomer, unassigned) [Compound 24-2]
pIC50: > 8.00

Molecule: [O-][S+]1CCc2nc(N3CCN4c5ccccc5OC[C@@H]4C3)nc(NC3(CO)COC3)c21 (stereo partly drawn) [Compound 72-4]
pIC50: > 8.00

Molecule: [O-][S@@+]1CCCc2nc(N3CCC=C(c4ncc(Cl)cn4)CC3)nc(NC3(CO)CCC3)c21 [Compound 17-2]
pIC50: > 8.00

Molecule: C#Cc1ccc(C2=CCN(c3nc4c(c(NC5([C@H](C)O)CCC5)n3)[S@@+]([O-])CC4)CC2)nc1 [Compound 95-4]
pIC50: > 8.00

Molecule: [O-][S@@+]1CCCc2nc(N3C[C@H]4CN(c5ncc(Cl)cn5)C[C@H]4C3)nc(NC3(CO)CCC3)c21 [Compound 14-1]
pIC50: 7.30 to 8.00

Molecule: [O-][S+]1CCc2nc(N3CCN4c5ccccc5OC[C@H]4C3)nc(NC3(CO)COC3)c21 (stereo partly drawn) [Compound 72-3]
pIC50: > 8.00

Molecule: C#Cc1cnc(C2=CCN(c3nc4c(c(Nc5cccc(F)c5)n3)[S@+]([O-])CC4)CC2)nc1 [Compound 36-1]
pIC50: > 8.00

Molecule: CC(C)(CO)Nc1nc(N2CC=C(c3ccc4c(c3)C[Si](C)(C)C4)CC2)nc2c1[S@+]([O-])CC2 [Compound 107]
pIC50: 7.30 to 8.00

Molecule: NC(=O)OCC1(Nc2nc(N3C[C@H]4CC(c5ccc(Cl)cc5)=C[C@H]4C3)nc3c2[S@+]([O-])CC3)CCC1 [Compound 44]
pIC50: > 8.00

Molecule: C#Cc1cnc(C2=CCN(c3nc4c(c(NC5([C@@H](C)O)CCC5)n3)[S@+]([O-])CC4)CC2)nc1 [Compound 96-1]
pIC50: > 8.00

Molecule: CN1C[C@@H](Nc2nc(N3C[C@H]4CN(c5ccc6c(c5)CC6)C[C@H]4C3)nc3c2[S@+]([O-])CC3)CCC1=O [Compound 109-2]
pIC50: 7.30 to 8.00

Molecule: Cc1cnc2c(c1)OC[C@H]1CN(c3nc4c(c(NC(C)(C)COC(N)=O)n3)[S@+]([O-])CC4)CCN21 [Compound 142-2]
pIC50: 7.30 to 8.00

Molecule: [O-][S@@+]1CCCc2nc(N3CCC=C(c4ccc(Cl)cc4)CC3)nc(NC3(CO)CCC3)c21 [Compound 16-2]
pIC50: 7.30 to 8.00

Molecule: [O-][S@@+]1CCCc2nc(N3C[C@H]4CN(c5ccc6c(c5)CC6)C[C@H]4C3)nc(NC3(CO)CCC3)c21 [Compound 13-2]
pIC50: > 8.00

Molecule: CCOc1cnc2c(c1)OC[C@@H]1CN(c3nc4c(c(NC(C)(C)COC(N)=O)n3)[S+]([O-])CC4)CCN21 (stereo partly drawn) [Compound 146-1]
pIC50: 7.30 to 8.00

Molecule: COC(=O)NCC(C)(C)Nc1nc(N2CCN3c4ncc(C)cc4OC[C@H]3C2)nc2c1[S@+]([O-])CC2 [Compound 141-1]
pIC50: 7.30 to 8.00

Molecule: CC(C)(CC#N)Nc1nc(N2CC=C(c3ncc(C4CC4)cn3)CC2)nc2c1[S@+]([O-])CC2 [Compound 134]
pIC50: > 8.00

Molecule: CCOc1cnc2c(c1)OC[C@H]1CN(c3nc4c(c(NC(C)(C)COC(N)=O)n3)[S+]([O-])CC4)CCN21 (stereo partly drawn) [Compound 146-2]
pIC50: 7.30 to 8.00

Molecule: C#Cc1ccc(C2=CCN(c3nc4c(c(NC5([C@H](C)O)CCC5)n3)[S@+]([O-])CC4)CC2)nc1 [Compound 95-2]
pIC50: > 8.00

Molecule: CC#Cc1cnc2c(c1)OC[C@H]1CN(c3nc4c(c(NC(C)(C)COC(N)=O)n3)[S@+]([O-])CC4)CCN21 [Compound 112-2]
pIC50: 7.30 to 8.00

Molecule: C#Cc1cnc(C2=CCN(c3nc4c(c(Nc5cccc(F)c5)n3)[S@@+]([O-])CC4)CC2)nc1 [Compound 36-2]
pIC50: 7.30 to 8.00

Molecule: [O-][S@+]1CCc2nc(N3CC4CN(c5ccc6c(c5)CC6)CC4C3)nc(Nc3cccc(S(F)(F)(F)(F)F)c3)c21 (stereo partly drawn) [Compound 75-1]
pIC50: 7.30 to 8.00

Molecule: CC(C)(COC(N)=O)Nc1nc(N2CCN3c4ncc(C5CC5)cc4OC[C@H]3C2)nc2c1[S@+]([O-])CC2 [Compound 113-2]
pIC50: 7.30 to 8.00

Molecule: CCOc1cnc2c(c1)OC[C@@H]1CN(c3nc4c(c(NC(C)(C)CNC(=O)OC)n3)[S@+]([O-])CC4)CCN21 [Compound 147-1]
pIC50: 7.30 to 8.00

Molecule: NC(=O)OCC1(Nc2nc(N3CC=C(c4nc5ccccc5o4)CC3)nc3c2[S@+]([O-])CC3)CCC1 [Compound 49]
pIC50: > 8.00

Molecule: [O-][S@+]1CCc2nc(N3CC=C(c4ncc(Cl)cn4)CC3)nc(Nc3ccnc(F)c3)c21 [Compound 85-1]
pIC50: > 8.00

Molecule: [O-][S@+]1CCc2nc(N3CC4CN(c5ccc6c(c5)CC6)CC4C3)nc(Nc3cccc(F)c3)c21 (stereo partly drawn) [Compound 76-1]
pIC50: > 8.00

----------
- Measured target: PDE4B2 (Homo sapiens (Human))
- Experimental protocol: Effect of compounds on PDE4B2 activity (fluorescence polarization kit)
Some molecules, each annotated with its measured IC50.

Molecule: Cc1coc(C2=CCN(c3nc4c(c(NC5(COC(N)=O)CCC5)n3)[S@+]([O-])CC4)CC2)n1
Measured target: PDE4B2 (Homo sapiens (Human))
IC50: < 10 nM
--
Molecule: CC(C)(COC(N)=O)Nc1nc(N2CC=C(c3ncccn3)CC2)nc2c1[S@+]([O-])CC2
Measured target: PDE4B2 (Homo sapiens (Human))
IC50: 10 to 50 nM
--
Molecule: CC(C)(COC(N)=O)Nc1nc(N2CC=C(c3ncc(Cl)cn3)CC2)nc2c1[S@+]([O-])CC2
Measured target: PDE4B2 (Homo sapiens (Human))
IC50: < 10 nM
--
Molecule: C#Cc1cnc(C2=CCN(c3nc4c(c(NC5(COC(F)F)CCC5)n3)[S+]([O-])CC4)CC2)nc1 (stereo not shown)
Measured target: PDE4B2 (Homo sapiens (Human))
IC50: < 10 nM

----------
- Experimental protocol: Pharmacokinetic test in rats
- Assay type: in vivo
- Experimental conditions: male, SD, iv; rat plasma, i.v. 2.5 mg/kg

Test smiles: CC(C)(COC(N)=O)Nc1nc(N2CC=C(c3ncc(C4CC4)cn3)CC2)nc2c1[S@+]([O-])CC2
clearance / mL/min/kg: 2.54

----------
- Experimental protocol: Pharmacokinetic test in rats
- Format: in vivo
- Experimental conditions: male, SD, iv; rat plasma, i.v. 2.5 mg/kg; read-out: Vdss

Test smiles: CC(C)(COC(N)=O)Nc1nc(N2CC=C(c3ncc(C4CC4)cn3)CC2)nc2c1[S@+]([O-])CC2
Vd [L/kg]: 0.324

----------
- Experimental protocol: Pharmacokinetic test in rats
- Format: in vivo
- Experimental conditions: male, SD, po; rat plasma, i.g. 10 mg/kg
Endpoint: AUC(0-t) (ng·h/mL)

Compound: CC(C)(COC(N)=O)Nc1nc(N2CC=C(c3ncc(C4CC4)cn3)CC2)nc2c1[S@+]([O-])CC2 [Compound 84]
Endpoint: AUC(0-t)
Readout unit: ng·h/mL
Number: 52200

----------
- Experimental protocol: Pharmacokinetic test in beagle dogs
- Assay type: in vivo
- Experimental conditions: male, iv; beagle dog plasma, i.v. 1 mg/kg
Endpoint: clearance (mL/min/kg)

Compound: CC(C)(COC(N)=O)Nc1nc(N2CC=C(c3ncc(Cl)cn3)CC2)nc2c1[S@+]([O-])CC2 [Compound 51]
Endpoint: clearance
Number: 3.06

----------
- Experimental protocol: Pharmacokinetic test in beagle dogs
- Assay type: in vivo
- Experimental conditions: male, iv; beagle dog plasma, i.v. 1 mg/kg; read-out: Vdss

Test smiles: CC(C)(COC(N)=O)Nc1nc(N2CC=C(c3ncc(Cl)cn3)CC2)nc2c1[S@+]([O-])CC2
Readout unit: L/kg
Vd: 3.08

----------
- Experimental protocol: Pharmacokinetic test in rats
- Assay type: in vivo
- Experimental conditions: male, SD, iv; rat plasma, i.v. 2.5 mg/kg

Test smiles: CC(C)(COC(N)=O)Nc1nc(N2CC=C(c3ncc(C4CC4)cn3)CC2)nc2c1[S@+]([O-])CC2
AUC(0-t) / ng·h/mL: 16500
